Value source: the Deep4Chem optical property database

Overview of recorded absorption maximum for various compounds
Assay: solvent given as SMILES
Conditions: in C1CCCCC1

COMPOUND: CC(C)(C)c1ccc2c3c(c4ccc(C(C)(C)C)cc4c2c1)=[N+]1C(=C(c2ccccc2)c2cc4c5ccc(C(C)(C)C)cc5c5cc(C(C)(C)C)ccc5c4n2[B-]1(F)F)C=3
READING_UNIT: nm
absorption maximum: 693
//
COMPOUND: COC(=O)C(Cc1ccc2oc(-c3ccc(-n4c5ccccc5c5ccccc54)cc3)nc2c1)NC(=O)OC(C)(C)C (stereo not drawn)
READING_UNIT: nm
absorption maximum: 340
//
COMPOUND: COc1cc(OC)c2c(c1)C(=O)c1ccc(OC)cc1-2
READING_UNIT: nm
absorption maximum: 422
//
COMPOUND: CCCCCCCCCCn1cc(C2=C(c3cn(CCCCCCCCCC)c4ccccc34)C(=O)N(C)C2=O)c2ccccc21
READING_UNIT: nm
absorption maximum: 462
//
COMPOUND: c1cc2cccc3c4cccc5cccc(c(c1)c23)c54
READING_UNIT: nm
absorption maximum: 435
//
COMPOUND: CCC(C)(C)c1ccc(-c2ccc3c(c2)C(CCOC)(CCOC)c2cc(C(C)(C)CC)ccc2-3)cc1
READING_UNIT: nm
absorption maximum: 318
//
COMPOUND: COc1ccc(C2=C3C=c4c(oc5ccccc45)=[N+]3[B-](F)(F)n3c2cc2c4ccccc4oc23)cc1
READING_UNIT: nm
absorption maximum: 583.5
//
COMPOUND: CCOC(=O)CCOc1ccc(C(c2c(C)[nH]c3ccccc23)c2c(C)[nH]c3ccccc23)cc1
READING_UNIT: nm
absorption maximum: 290
